reported.property: log10 Henry constant (atm·m³/mol)
Numbers only.

CCCC=O : -3.94

Report log10 Henry constant (atm·m³/mol) for each item below.
1. CC1CCCO1 (stereo not drawn)
2. COC(C)=O

1: -4.03; 2: -3.94

====

I'd appreciate it if you could supply melting point values for the items below.
Answers are plain numbers, in °C.

Consider the worked cases shown below.
O=Cc1cc(Cl)ccc1O : 100
CC(=O)OC[C@H]1O[C@@H](n2ncc(=O)[nH]c2=O)[C@H](OC(C)=O)[C@@H]1OC(C)=O : 100

Now turn to the next molecule.
Using known records, supply melting point for Brc1cc(Br)c(Br)c(Br)c1 99.5

Each recorded value in this set is attributed to the OPERA property sets (Mansouri et al. 2018).
